- Experiment Notes: Pharmacokinetics in male Sprague Dawley rats
- Assay type: in vivo
- Reported Conditions: rat, sc, mean, single subcutaneous administration of 200 nMol/kg, plasma
Numbered stars: 1 amine (or outer) side, 2 acyl side, 3 side chain; on linkers, the order of the positions; unused ones are H or OH. Bridge positions count the residues as written; N and C are the ends. Square brackets hold non-standard residues; d marks the D form. * marks the point of attachment. PEG24 = NCCOCCOCCOCCOCCOCCOCCOCCOCCOCCOCCOCCOCCOCCOCCOCCOCCOCCOCCOCCOCCOCCOCCOCCOCCC(=O)O; C20 diacid = O=C(O)CCCCCCCCCCCCCCCCCCC(=O)*; γGlu = O=C(O)[C@H](CCC(=O)[*:2])N[*:1]; 4Pal = N[C@@H](Cc1ccncc1)C(=O)O; CH2 = C([*:1])[*:2]; βAla = NCCC(=O)O
# log10 of CL/F annotations
Hi team, quick reminder: these entries are log10 of CL/F (mL/min/kg).

The following substances have reported results that may help.
# log10 of CL/F of {C20 diacid-γGlu}-EKEKEKG[PEG24]S[4Pal]RRSSCFGGRIDRIGHQSGLGCPSFRHGGPSSGAPPPS-NH2 (linker 15-31 via CH2) [Example 61] = 0.03

# log10 of CL/F of {C20 diacid-γGlu}-EKEKEKG[PEG24]EK[βAla]RSSCFGGKIDRIGHYSGLGCPSFRHGSPSSGAPPPS-NH2 (linker 15-31 via CH2) [Example 6] = -0.97

# log10 of CL/F of {C20 diacid-γGlu}-EKEKEKGS[4Pal]RRSSCFGGRIGRIGHQSGLGCPSFRHGGPSSGAPPPS-NH2 (disulfide 14-30) [Example 29] = -0.26

Others:
# log10 of CL/F of {C20 diacid-γGlu}-EKEKEKG[PEG24]EK[βAla]RSSCFGGKIDRIGHQSGLGCPSFRHGSPSSGAPPPS-NH2 (linker 15-31 via CH2) [Example 7] = -1.26

# log10 of CL/F of {C20 diacid-γGlu}-EKEKEKG[PEG24]S[4Pal]RRSSCFGGRIDRIGHQSGLGCPSFRHGGKSSGAPPPS-NH2 (linker 15-31 via CH2) [Example 75] = -0.74
